Data credit: patent US12428416B2

Recorded below: Kd, system ERK1 (Homo sapiens, UniProt P27361).

See these solved cases before continuing.
Requested read-out: Kd. Entry: CC(NC(=O)c1ncc(-c2c[nH]c3ncc(N4CCC45COC5)cc23)cn1)c1ccccc1 (stereo in doubt)
11 to 100 nM

Same again, this time with c1ccc([C@@H]2CN=C(c3ncc(-c4c[nH]c5ncc(N6CCOCC6)cc45)cn3)O2)cc1
11 to 100 nM

Okay, and O=C(c1ncc(-c2c[nH]c3ncc(N4CCOCC4)cc23)cn1)N1CCC[C@@H]1c1ccccc1 ?
11 to 100 nM

// moving on: another record for Kd
Param item = C[C@@H](CNC(=O)c1ncc(-c2c[nH]c3ncc(N4CCOCC4)cc23)cn1)c1ccccc1 ; retrieve measured Kd.
11 to 100 nM

---

pKd: −log10 of the molar value.
The listing below reports pKd for compounds tested on UniProt:P27361.

Below: 3 compounds and their reported pKd.
// pKd lookup, key: O=C(c1ncc(-c2c[nH]c3ncc(N4CCOCC4)cc23)cn1)N1CCC[C@H]1c1ccccc1 [Compound 19]
< 7.00

# iterate: c1ccc([C@H]2COC(c3ncc(-c4c[nH]c5ncc(N6CCOCC6)cc45)cn3)=N2)cc1 [Compound 27]
≥ 8.00

Field entry: CC(NC(=O)c1ncc(-c2c[nH]c3ncc(Br)cc23)cn1)c1ccccc1 (stereo in doubt) [Compound 67]
7.00 to 7.96

Okay, now this compound:
# lookup: pKd of CC(NC(=O)c1ncc(-c2c[nH]c3ncc(N4CCO[C@@H](C)C4)cc23)cn1)c1ccccc1 (stereo in doubt) [Compound 37]
≥ 8.00

---

Tested on: drug-sensitive cell lines of Table 4
Assay: Cell line growth retardation assay, average over sensitive cohort
Assay type: cell-based, Human
Settings: Homo sapiens, 144 h; geometric mean of IC50s over sensitive cohort (Table 4); 6 days growth; read-out: AvgSens IC50
result_type: IC50

Param readout = IC50; param system = drug-sensitive cell lines of Table 4; param query = O=C(NCCc1ccccc1)c1ccc(-c2c[nH]c3ncc(N4CCOCC4)cc23)nn1 [Compound 13] ; response: value
> 500 nM

Input C[C@H](NC(=O)c1ncc(-c2c[nH]c3ncc(N4CCOCC4)cc23)cn1)c1ccccc1F [Compound 44]
≤ 250 nM

Next:
Give IC50 (drug-sensitive cell lines of Table 4) of the following compound: Cc1cc(-c2cnc3[nH]cc(-c4cnc(C(=O)NC(C)c5ccccc5)nc4)c3c2)ccn1 (stereo in doubt) [Compound 40]
≤ 250 nM

Input O=C(NCCc1ccccn1)c1ncc(-c2c[nH]c3ncc(N4CCOCC4)cc23)cn1 [Compound 60]
> 500 nM

---

Target: ERK1 (Homo sapiens)
pKd: −log10 of the molar value.
result_type: pKd

Examples with answers:
# lookup: pKd of C[C@H](NC(=O)c1ncc(-c2c[nH]c3ncc(NCCO)cc23)cn1)c1ccccc1 [Compound 68]
7.00 to 7.96

Okay, and O=C(c1ncc(-c2c[nH]c3ncc(N4CCOCC4)cc23)cn1)N1CCCC1c1ccccn1 (centres unmarked) [Compound 26] ?
7.00 to 7.96

For COc1cc(-c2cnc3[nH]cc(-c4cnc(C(=O)NC(C)c5ccccc5)nc4)c3c2)ccn1 (stereo in doubt) [Compound 41] then?
≥ 8.00

Same thing, different compound: C[C@@H](Cc1ccccc1)NC(=O)c1ncc(-c2c[nH]c3ncc(N4CCOCC4)cc23)cn1 [Compound 30]
< 7.00

And then COc1ccccc1[C@H](C)NC(=O)c1ncc(-c2c[nH]c3ncc(N4CCOCC4)cc23)cn1 [Compound 46] , what is it?
≥ 8.00

Cool, now O=C(Nc1ccccc1)c1ncc(-c2c[nH]c3ncc(N4CCOCC4)cc23)cn1 [Compound 23]
< 7.00

Consider next the compound CC(NC(=O)c1ncc(-c2c[nH]c3ncc(N4CCOCC4)cc23)cn1)c1ccccc1 (stereo in doubt) [Compound 6] in the same way.
≥ 8.00

Moving on to the next compound.
What does the data say about its pKd? Entry: O=C(NCc1ccccc1)c1ncc(-c2c[nH]c3ncc(N4CCOCC4)cc23)cn1 [Compound 7]
≥ 8.00

---

Tested on: drug-sensitive cell lines of Table 4
Test: Cell line growth retardation assay, average over sensitive cohort
Assay type: cell-based, Human
Settings: Homo sapiens, 144 h; geometric mean of IC50s over sensitive cohort (Table 4); 6 days growth; read-out: AvgSens IC50
pIC50: −log10 of the molar value.
result_type: pIC50

These solved cases illustrate the format of a correct answer.
Fill blank: measured pIC50 of the compound CCN1C[C@H](c2ccccc2)N=C1c1ncc(-c2c[nH]c3ncc(N4CCOCC4)cc23)cn1 [Compound 51] is ____.
6.30 to 6.60

Then O=C(NCCc1ccccc1)c1ccc(-c2c[nH]c3ncc(N4CCOCC4)cc23)nc1 [Compound 9] ?
< 6.30

Here is the next compound: COc1ccccc1[C@H](C)NC(=O)c1ncc(-c2c[nH]c3ncc(N4CCOCC4)cc23)cn1 [Compound 46]
6.30 to 6.60

Try this compound too: N#Cc1ccccc1CCNC(=O)c1ncc(-c2c[nH]c3ncc(N4CCOCC4)cc23)cn1 [Compound 66]
< 6.30

---
Find the recorded pIC50 belonging to c1ccc([C@@H]2COC(c3ncc(-c4c[nH]c5ncc(N6CCOCC6)cc45)cn3)=N2)cc1 [Compound 28] and report it.
< 6.30

Now the same for O=C(NCc1ccc(C(F)(F)F)cc1)c1ncc(-c2c[nH]c3ncc(N4CCOCC4)cc23)cn1 [Compound 10]
< 6.30

Field entry: O=C(NCCc1ccccc1Cl)c1ncc(-c2c[nH]c3ncc(N4CCOCC4)cc23)cn1 [Compound 61]
6.30 to 6.60

---

The listing below reports Kd for compounds tested on ERK1 (Homo sapiens, UniProt P27361).
Sequence (P27361 whole entry): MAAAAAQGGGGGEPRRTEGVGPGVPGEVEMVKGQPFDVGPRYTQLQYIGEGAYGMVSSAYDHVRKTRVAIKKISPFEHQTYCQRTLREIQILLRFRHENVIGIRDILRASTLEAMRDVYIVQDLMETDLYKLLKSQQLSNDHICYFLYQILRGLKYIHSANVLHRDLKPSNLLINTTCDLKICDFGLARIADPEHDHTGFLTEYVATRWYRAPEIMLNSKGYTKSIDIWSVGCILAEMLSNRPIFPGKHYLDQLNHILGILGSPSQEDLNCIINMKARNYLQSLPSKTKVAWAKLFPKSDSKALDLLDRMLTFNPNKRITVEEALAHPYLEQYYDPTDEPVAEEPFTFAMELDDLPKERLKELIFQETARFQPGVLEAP

Past entries and their recorded results:
Could you share which Kd value was measured for O=C(NCCc1ccccc1)c1ccc(-c2c[nH]c3ncc(N4CCOCC4)cc23)nn1 ?
0.011 to 0.1 µM

// query: O=C(NC(c1ccccc1)C1CC1)c1ncc(-c2c[nH]c3ncc(N4CCOCC4)cc23)cn1 (stereo not drawn)
≤ 0.01 µM

Query C[C@H](NC(=O)c1ncc(-c2c[nH]c3ncc(N4CCOCC4)cc23)cn1)c1ccccc1F next
≤ 0.01 µM

Then C[C@H](NC(=O)c1ncc(-c2c[nH]c3ncc(N4CCOCC4)cc23)cn1)c1ccccc1Cl ?
≤ 0.01 µM

// moving on: another record for Kd
For the compound c1ccc([C@H]2CN=C(c3ncc(-c4c[nH]c5ncc(N6CCOCC6)cc45)cn3)O2)cc1 , what Kd is on record?
0.011 to 0.1 µM

---

Test system: drug-sensitive cell lines of Table 4
Experiment: Cell line growth retardation assay, average over sensitive cohort
Format: cell-based, Human
Details: Homo sapiens, 144 h; geometric mean of IC50s over sensitive cohort (Table 4); 6 days growth; read-out: AvgSens IC50
pIC50: −log10 of the molar value.
result_type: pIC50

What is its pIC50 for drug-sensitive cell lines of Table 4? Entry: CC(NC(=O)c1ncc(-c2c[nH]c3ncc(N4CCOCC4)cc23)cn1)c1ccccc1 (stereo in doubt) [Compound 6]
≥ 6.60

What about CC(NC(=O)c1ncc(-c2c[nH]c3ncc(N4C[C@@H](C)O[C@@H](C)C4)cc23)cn1)c1ccccc1 (stereo in doubt) ?
< 6.30

// query: Cc1cccc(C(C)NC(=O)c2ncc(-c3c[nH]c4ncc(N5CCOCC5)cc34)cn2)c1 (stereo in doubt)
≥ 6.60

Then what about the molecule CC(NC(=O)c1ncc(-c2c[nH]c3ncc(Br)cc23)cn1)c1ccccc1 (stereo in doubt) ?
< 6.30

Okay, and O=C(NCc1ccccc1)c1ncc(-c2c[nH]c3ncc(N4CCOCC4)cc23)cn1 ?
< 6.30

Next:
Item: C[C@H](CNC(=O)c1ncc(-c2c[nH]c3ncc(N4CCOCC4)cc23)cn1)c1ccccc1 Test system: drug-sensitive cell lines of Table 4 Read-out: pIC50 Value: ?
6.30 to 6.60

Quick one: CC(NC(=O)c1ncc(-c2c[nH]c3ncc(N4CCOC(C)(C)C4)cc23)cn1)c1ccccc1 (stereo in doubt)
< 6.30

// query: CC(NC(=O)c1ncc(-c2c[nH]c3ncc(N4CC5(COC5)C4)cc23)cn1)c1ccccc1 (stereo in doubt)
< 6.30

---

For ERK1 (Homo sapiens, UniProt P27361), measured Kd is reported for the entries below.

Sample records with Kd:
What value of Kd has been recorded for this entry: O=C(NCCc1cccc(C(F)(F)F)c1)c1ncc(-c2c[nH]c3ncc(N4CCOCC4)cc23)cn1
11 to 100 nM

Check C[C@H](CNC(=O)c1ncc(-c2c[nH]c3ncc(N4CCOCC4)cc23)cn1)c1ccccc1 too.
≤ 10 nM

Let us now turn to O=C(NCCc1ccc(F)cc1)c1ncc(-c2c[nH]c3ncc(N4CCOCC4)cc23)cn1
≤ 10 nM

Further cases:
Find the recorded Kd belonging to C[C@@H](NC(=O)c1ncc(-c2c[nH]c3ncc(N4CCOCC4)cc23)cn1)c1cccc(C(F)(F)F)c1 and report it.
≤ 10 nM

Also check O=C(NC(CO)c1ccccc1)c1ncc(-c2c[nH]c3ncc(N4CCOCC4)cc23)cn1 (stereo in doubt)
≤ 10 nM

Another compound: Cc1ccccc1CCNC(=O)c1ncc(-c2c[nH]c3ncc(N4CCOCC4)cc23)cn1
≤ 10 nM

And what about the compound C[C@H](Cc1ccccc1)NC(=O)c1ncc(-c2c[nH]c3ncc(N4CCOCC4)cc23)cn1 ?
≤ 10 nM

Repeat for the following compound: CCN1C[C@H](c2ccccc2)N=C1c1ncc(-c2c[nH]c3ncc(N4CCOCC4)cc23)cn1
11 to 100 nM

Can you handle CC(NC(=O)c1ncc(-c2c[nH]c3ncc(N4CCOCC4)cc23)cn1)c1ccccc1 (stereo in doubt) [Compound 22] next?
> 100 nM

And O=C(NCCc1cccc(F)c1)c1ncc(-c2c[nH]c3ncc(N4CCOCC4)cc23)cn1 ?
11 to 100 nM
